Molecular target: UniProt P0DMS8
Sequence (whole entry): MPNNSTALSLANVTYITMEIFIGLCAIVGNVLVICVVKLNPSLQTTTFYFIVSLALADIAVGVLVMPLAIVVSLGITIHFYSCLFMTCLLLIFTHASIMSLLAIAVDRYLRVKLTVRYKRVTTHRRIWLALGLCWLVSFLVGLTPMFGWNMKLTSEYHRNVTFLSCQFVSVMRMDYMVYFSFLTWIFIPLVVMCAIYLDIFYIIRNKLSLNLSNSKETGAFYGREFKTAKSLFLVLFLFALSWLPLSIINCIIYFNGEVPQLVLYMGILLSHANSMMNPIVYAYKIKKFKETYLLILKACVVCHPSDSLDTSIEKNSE
Assay: Displacement of [3H]NECA from human recombinant adenosine A3 receptor expressed in HEK293T cells at 100 uM
Type: cell-based
Conditions: HEK-293T
quantity.kind: Activity (%)
Give the value, in units of %, as a plain number.

Field Activity (system: UniProt P0DMS8) for entry CN1C(=O)C(N)C(c2ccncc2Cl)N(C)C1=O (centres undefined) = 3

Field Activity (system: UniProt P0DMS8) for entry CN1CC(Nc2cccnc2)C(=O)N(C)C1=O (centres undefined) = 25

Field Activity (system: UniProt P0DMS8) for entry Cn1c(=O)c2c(ncn2C)n(C)c1=O = 9

Field Activity (system: UniProt P0DMS8) for entry CN1CC(N(C)c2cccnc2)C(=O)N(C)C1=O (centres undefined) = 0.2

---

Would you kindly list Ki for each of these molecules?
Molecular target: Adenosine receptor A3 (Homo sapiens)
Sequence (P0DMS8 whole entry): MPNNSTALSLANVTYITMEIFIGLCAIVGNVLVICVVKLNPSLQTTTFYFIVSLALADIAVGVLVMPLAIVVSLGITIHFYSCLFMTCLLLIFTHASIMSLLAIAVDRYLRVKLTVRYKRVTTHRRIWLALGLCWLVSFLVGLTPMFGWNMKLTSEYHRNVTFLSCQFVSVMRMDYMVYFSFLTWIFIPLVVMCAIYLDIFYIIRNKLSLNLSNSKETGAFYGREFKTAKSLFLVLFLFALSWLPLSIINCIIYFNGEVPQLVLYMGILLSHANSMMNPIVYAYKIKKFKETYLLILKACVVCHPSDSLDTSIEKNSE
Assay: Displacement of [3H]NECA from human recombinant adenosine A3 receptor expressed in HEK293T cells
Give the value, in units of µM, as a plain number.

Query Cn1c(=O)c2c(c3ncccc3n2C)n(C)c1=O yields Ki of 0.332

Query Cn1c(=O)c2c(c3ccncc3n2C)n(C)c1=O yields Ki of 3.19

Query Cn1c(=O)c2[nH]c3cnccc3c2n(C)c1=O yields Ki of 0.526

Query Cn1c(=O)c2[nH]c3cccnc3c2n(C)c1=O yields Ki of 0.0139

Query Oc1c(Br)cc2[nH]c3cnccc3c2c1Br yields Ki of 2.05

---

Would you kindly list Ki for each of these compounds?
Target: Adenosine receptor A1 (Homo sapiens, UniProt P30542)
Sequence (P30542 whole entry): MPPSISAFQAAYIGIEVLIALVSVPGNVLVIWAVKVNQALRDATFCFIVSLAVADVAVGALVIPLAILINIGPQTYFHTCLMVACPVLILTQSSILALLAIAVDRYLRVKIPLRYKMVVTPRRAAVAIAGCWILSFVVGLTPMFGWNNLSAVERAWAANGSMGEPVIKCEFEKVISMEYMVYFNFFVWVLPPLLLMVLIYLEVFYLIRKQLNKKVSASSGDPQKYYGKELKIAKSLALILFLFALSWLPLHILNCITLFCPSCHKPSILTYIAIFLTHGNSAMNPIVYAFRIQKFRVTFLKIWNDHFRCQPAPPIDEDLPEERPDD
Assay: Displacement of [3H]DPCPX from human recombinant adenosine A1 receptor expressed in HEK293T cells
Give the value, in units of µM, as a plain number.

Query Oc1c(Br)cc2[nH]c3cnccc3c2c1Br yields Ki of 7.37

Query Cn1c(=O)c2c(c3ncccc3n2C)n(C)c1=O yields Ki of 13.5

Query Cn1c(=O)c2[nH]c3cccnc3c2n(C)c1=O yields Ki of 0.379

Query Cn1c(=O)c2[nH]c3cnccc3c2n(C)c1=O yields Ki of 11.7

---

Target: Adenosine receptor A2a (Homo sapiens)
Sequence (P29274 whole entry): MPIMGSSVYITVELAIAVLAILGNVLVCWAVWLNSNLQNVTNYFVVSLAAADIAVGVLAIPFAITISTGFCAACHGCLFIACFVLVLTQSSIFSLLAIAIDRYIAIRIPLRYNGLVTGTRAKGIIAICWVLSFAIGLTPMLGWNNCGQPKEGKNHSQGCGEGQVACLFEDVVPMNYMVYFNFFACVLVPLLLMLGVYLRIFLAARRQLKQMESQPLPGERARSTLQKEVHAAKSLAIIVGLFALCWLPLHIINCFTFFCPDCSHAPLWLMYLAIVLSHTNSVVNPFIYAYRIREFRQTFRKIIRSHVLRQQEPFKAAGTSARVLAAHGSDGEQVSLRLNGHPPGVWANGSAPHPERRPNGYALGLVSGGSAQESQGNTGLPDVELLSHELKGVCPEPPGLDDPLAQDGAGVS
Assay: biochemical
Description: Displacement of [3H]CGS21680 from human recombinant adenosine A2A receptor expressed in HEK293T cells
quantity.kind: Ki (µM)
Give the value, in units of µM, as a plain number.

Query Oc1c(Br)cc2[nH]c3cnccc3c2c1Br yields Ki of 4.92
